Experimental system: Human Factor B (human) (UniProt P00751)
Sequence (P00751 26-764 limits assumed): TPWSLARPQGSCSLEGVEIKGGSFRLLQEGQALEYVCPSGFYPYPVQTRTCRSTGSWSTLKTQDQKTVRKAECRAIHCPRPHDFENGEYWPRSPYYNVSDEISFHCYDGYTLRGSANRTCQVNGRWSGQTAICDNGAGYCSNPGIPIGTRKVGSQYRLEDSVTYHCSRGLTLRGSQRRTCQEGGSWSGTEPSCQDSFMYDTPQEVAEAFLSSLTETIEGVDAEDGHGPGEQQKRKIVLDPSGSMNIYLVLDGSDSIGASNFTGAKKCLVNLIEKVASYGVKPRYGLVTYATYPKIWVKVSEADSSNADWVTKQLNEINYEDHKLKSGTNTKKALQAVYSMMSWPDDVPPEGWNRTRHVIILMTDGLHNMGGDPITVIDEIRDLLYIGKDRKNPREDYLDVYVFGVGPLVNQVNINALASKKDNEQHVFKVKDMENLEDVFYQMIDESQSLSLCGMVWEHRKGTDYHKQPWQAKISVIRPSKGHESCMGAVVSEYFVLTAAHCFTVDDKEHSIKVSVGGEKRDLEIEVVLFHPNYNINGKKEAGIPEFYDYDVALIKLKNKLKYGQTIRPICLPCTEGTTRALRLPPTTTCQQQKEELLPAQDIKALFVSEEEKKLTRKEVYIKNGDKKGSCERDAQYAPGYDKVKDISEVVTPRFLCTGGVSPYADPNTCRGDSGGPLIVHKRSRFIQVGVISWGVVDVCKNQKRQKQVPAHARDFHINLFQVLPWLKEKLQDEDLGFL
Protocol summary: cell-based or functional assay
Measured fB Cleavage EC50, listed per entry.
Write it as a number; the unit nM goes unstated.

Example entries begin here.
Binder	Unit name	fB Cleavage EC50
chymase C22S/F41K/L99N/F173Y/D175N/S218L/A226R (enzyme) IIGGTESKPHSRPYMAYLEIVTSNGPSKKCGGFLIRRNFVLTAAHCAGRSITVTLGAHNITEEEDTWQKLEVIKQFRHPKYNTSTNHHDIMLLKLKEKASLTLAVGTLPFPSQFNFVPPGRMCRVAGWGRTGVLKPGSDTLQEVKLRLMDPQACSHYRNFDHNLQLCVGNPRKTKSAFKGDSGGPLLCAGVAQGIVSYGRLDAKPPRVFTRISHYRPWINQILQAN	nM	77
chymase C22S/L99R/F173L/K192R/Y215H/R217T/S218V/A226R (enzyme) IIGGTESKPHSRPYMAYLEIVTSNGPSKFCGGFLIRRNFVLTAAHCAGRSITVTLGAHNITEEEDTWQKLEVIKQFRHPKYNTSTRHHDIMLLKLKEKASLTLAVGTLPFPSQFNFVPPGRMCRVAGWGRTGVLKPGSDTLQEVKLRLMDPQACSHLRDFDHNLQLCVGNPRKTKSAFRGDSGGPLLCAGVAQGIVSHGTVDAKPPRVFTRISHYRPWINQILQAN	nM	7770
chymase C22S/P38Q/K40L/F41R/L99Y/V138I/F173Y/D175N/A190S/V213A/S218V/A226R (enzyme) IIGGTESKPHSRPYMAYLEIVTSNGQSLRCGGFLIRRNFVLTAAHCAGRSITVTLGAHNITEEEDTWQKLEVIKQFRHPKYNTSTYHHDIMLLKLKEKASLTLAVGTLPFPSQFNFVPPGRMCRIAGWGRTGVLKPGSDTLQEVKLRLMDPQACSHYRNFDHNLQLCVGNPRKTKSSFKGDSGGPLLCAGVAQGIASYGRVDAKPPRVFTRISHYRPWINQILQAN	nM	57
chymase C22S/K40L/F41R/L99G/F173Y/D175R/S218V/A226R (enzyme) IIGGTESKPHSRPYMAYLEIVTSNGPSLRCGGFLIRRNFVLTAAHCAGRSITVTLGAHNITEEEDTWQKLEVIKQFRHPKYNTSTGHHDIMLLKLKEKASLTLAVGTLPFPSQFNFVPPGRMCRVAGWGRTGVLKPGSDTLQEVKLRLMDPQACSHYRRFDHNLQLCVGNPRKTKSAFKGDSGGPLLCAGVAQGIVSYGRVDAKPPRVFTRISHYRPWINQILQAN	nM	333

Ask | Find the recorded fB Cleavage EC50 belonging to chymase C22S/P38Q/K40A/F41K/L99H/V138I/D175S/A190S/V213A/S218V/A226R (enzyme) IIGGTESKPHSRPYMAYLEIVTSNGQSAKCGGFLIRRNFVLTAAHCAGRSITVTLGAHNITEEEDTWQKLEVIKQFRHPKYNTSTHHHDIMLLKLKEKASLTLAVGTLPFPSQFNFVPPGRMCRIAGWGRTGVLKPGSDTLQEVKLRLMDPQACSHFRSFDHNLQLCVGNPRKTKSSFKGDSGGPLLCAGVAQGIASYGRVDAKPPRVFTRISHYRPWINQILQAN and report it.
Reply | 142

Ask | And chymase C22S/V138L/S189T/A190G/A226R (enzyme) IIGGTESKPHSRPYMAYLEIVTSNGPSKFCGGFLIRRNFVLTAAHCAGRSITVTLGAHNITEEEDTWQKLEVIKQFRHPKYNTSTLHHDIMLLKLKEKASLTLAVGTLPFPSQFNFVPPGRMCRLAGWGRTGVLKPGSDTLQEVKLRLMDPQACSHFRDFDHNLQLCVGNPRKTKTGFKGDSGGPLLCAGVAQGIVSYGRSDAKPPRVFTRISHYRPWINQILQAN ?
Reply | 4160

Ask | And chymase C22S/P38Q/K40M/F41R/V138I/F173L/D175K/A190S/V213A/S218V/A226R (enzyme) IIGGTESKPHSRPYMAYLEIVTSNGQSMRCGGFLIRRNFVLTAAHCAGRSITVTLGAHNITEEEDTWQKLEVIKQFRHPKYNTSTLHHDIMLLKLKEKASLTLAVGTLPFPSQFNFVPPGRMCRIAGWGRTGVLKPGSDTLQEVKLRLMDPQACSHLRKFDHNLQLCVGNPRKTKSSFKGDSGGPLLCAGVAQGIASYGRVDAKPPRVFTRISHYRPWINQILQAN ?
Reply | 350

Ask | And chymase C22S/F41R/L99H/G151A/F173S/Y215K/R217T/A226R (enzyme) IIGGTESKPHSRPYMAYLEIVTSNGPSKRCGGFLIRRNFVLTAAHCAGRSITVTLGAHNITEEEDTWQKLEVIKQFRHPKYNTSTHHHDIMLLKLKEKASLTLAVGTLPFPSQFNFVPPGRMCRVAGWGRTGVLKPASDTLQEVKLRLMDPQACSHSRDFDHNLQLCVGNPRKTKSAFKGDSGGPLLCAGVAQGIVSKGTSDAKPPRVFTRISHYRPWINQILQAN ?
Reply | 2250

Ask | And chymase C22S/S189T/A190S/F191S/A220L/A226R (enzyme) IIGGTESKPHSRPYMAYLEIVTSNGPSKFCGGFLIRRNFVLTAAHCAGRSITVTLGAHNITEEEDTWQKLEVIKQFRHPKYNTSTLHHDIMLLKLKEKASLTLAVGTLPFPSQFNFVPPGRMCRVAGWGRTGVLKPGSDTLQEVKLRLMDPQACSHFRDFDHNLQLCVGNPRKTKTSSKGDSGGPLLCAGVAQGIVSYGRSDLKPPRVFTRISHYRPWINQILQAN ?
Reply | 8140

Ask | And chymase C22S/K40L/F41K/L99N/D175N/S218L/A226R (enzyme) IIGGTESKPHSRPYMAYLEIVTSNGPSLKCGGFLIRRNFVLTAAHCAGRSITVTLGAHNITEEEDTWQKLEVIKQFRHPKYNTSTNHHDIMLLKLKEKASLTLAVGTLPFPSQFNFVPPGRMCRVAGWGRTGVLKPGSDTLQEVKLRLMDPQACSHFRNFDHNLQLCVGNPRKTKSAFKGDSGGPLLCAGVAQGIVSYGRLDAKPPRVFTRISHYRPWINQILQAN ?
Reply | 295
